# System: EKVX NSCLC
# ASSAY_TEXT: NCI tumour cell line growth inhibition, 48 h
Listed molecules paired with reported TGI
ASSAY_METRIC: TGI (µM)

>>> reported_value("CN1CCN(Cc2ccc(NC(=O)c3[nH]ncc3Nc3ncnc4[nH]ccc34)cc2)CC1")
2.64
>>> reported_value("O=C1C=CC(=O)c2c(O)c(N3CCOCC3)c(Cl)c(O)c21")
2.79
>>> reported_value("CCN(CC)CCCNCc1cc(-c2ccccc2)nc2cc(Cl)ccc12")
24.3
>>> reported_value("O=c1[nH]n(CCc2ccccc2CCl)c2ccc([N+](=O)[O-])cc12")
36.1
>>> reported_value("O=C1c2ccncc2C(=O)c2c(O)ccc(O)c21")
32.1

Just for reference, PubChem BioAssay (NCI) is where these values come from.
